The measurements presented in this section are drawn from PubChem BioAssay AID2060905.

- Tested on: 282377-053-R-J1-PDC complex spheroid viability;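 also: spheroids exposed to agents for seven days before readout; luminescence viability as percent of DMSO vehicle control wells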
- assayOverview: Anticancer human tumor 282377-053-R-J1-PDC patient-derived colon adenocarcinoma cell line growth inhibition [RAS]
- experimentalParameters: second compound 0.3 µM; first compound 0.0316 µM; hits give low values
// assign true (1) if viability, T/C falls strictly below 90%, else false (0) (ties count as false (0))

CC(C)n1nc(-c2ccc3oc(N)nc3c2)c2c(N)ncnc21 + CCn1c(-c2cc(N3CCN(C)CC3)cnc2C(C)OC)c2c3cc(ccc31)-c1csc(n1)CC(NC(=O)C1CC1C)C(=O)N1CCCC(N1)C(=O)OCC(C)(C)C2	true (1)
CC(=O)OC12COC1CC(O)C1(C)C(=O)C(O)C3=C(C)C(OC(=O)C(O)C(NC(=O)OC(C)(C)C)c4ccccc4)CC(O)(C(OC(=O)c4ccccc4)C21)C3(C)C (stereo not drawn) + CCn1c(-c2cc(N3CCN(C)CC3)cnc2C(C)OC)c2c3cc(ccc31)-c1csc(n1)CC(NC(=O)C1CC1C)C(=O)N1CCCC(N1)C(=O)OCC(C)(C)C2	true (1)
CC(C)n1nc(-c2ccc3oc(N)nc3c2)c2c(N)ncnc21 + CCn1c(-c2cccnc2C(C)OC)c2c3cc(ccc31)N1CCOC(CC(NC(=O)C(C(C)C)N(C)C(=O)C3(F)CCN(C(=O)C#CC(C)(C)N(C)C)CC3)C(=O)N3CCCC(N3)C(=O)OCC(C)(C)C2)C1	true (1)
C[C@@H](NC(=O)c1ncnc(N)c1Cl)c1ncc(C(=O)Nc2cc(C(F)(F)F)c(Cl)cn2)s1 + CCn1c(-c2cccnc2C(C)OC)c2c3cc(ccc31)N1CCOC(CC(NC(=O)C(C(C)C)N(C)C(=O)C3(F)CCN(C(=O)C#CC(C)(C)N(C)C)CC3)C(=O)N3CCCC(N3)C(=O)OCC(C)(C)C2)C1	true (1)

**Q:** For CC1(O)CCCC1n1c(=O)c(C(F)F)cc2cnc(NC3CCN(S(C)(=O)=O)CC3)nc21 (stereo not drawn) + CCn1c(-c2cc(N3CCN(C)CC3)cnc2C(C)OC)c2c3cc(ccc31)-c1csc(n1)CC(NC(=O)C1CC1C)C(=O)N1CCCC(N1)C(=O)OCC(C)(C)C2 , is the recorded viability, T/C below the cut-off of 90%?
**A:** false (0)

**Q:** For C=CC(=O)Nc1cc(Nc2nccc(-c3cn(C)c4ccccc34)n2)c(OC)cc1N(C)CCN(C)C + CCn1c(-c2cccnc2C(C)OC)c2c3cc(ccc31)N1CCOC(CC(NC(=O)C(C(C)C)N(C)C(=O)C3(F)CCN(C(=O)C#CC(C)(C)N(C)C)CC3)C(=O)N3CCCC(N3)C(=O)OCC(C)(C)C2)C1 , is the recorded viability, T/C below the cut-off of 90%?
**A:** false (0)
